- Tested target: T1, talin-1 phosphotyrosine binding (TLN1 PTB) domain (human, UniProt Q9Y490 309-401)
- T1 construct: source: E. coli BL21 (DE3), purified (Ni Sepharose, tag cleaved with HRV 3C protease)
- T1 sequence (Q9Y490 309-401): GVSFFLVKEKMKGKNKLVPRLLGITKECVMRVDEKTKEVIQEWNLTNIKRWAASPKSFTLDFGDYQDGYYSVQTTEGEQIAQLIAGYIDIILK
- Assay info: fluorescence polarisation; displacement: unlabelled peptide in serial dilution added to FITC-labelled probe peptide with the protein at 4x the KD value; 50 mM KPO4 pH 7.5; triplicates; sigmoidal dose-response fit
- Run conditions: both partners purified
Each entry below lists one item and its recorded pIC50 value.
# pIC50: negative log10 of molar concentration; output just the value

Below are worked cases with known answers.
Ac-LADLIFTDSKLYLPLE-NH2 [TPTE2_I104L peptide 92-107]	4.85
Ac-LADLIWTDSKLYIPLE-NH2 [TPTE2_F97W peptide 92-107]	6.40
Ac-LADLIFTDSKLWIPLE-NH2 [TPTE2_Y103W peptide 92-107]	4.18

Please examine the following record next.
Query: pIC50; subject: Ac-LADLIFTDSKLYAPLE-NH2 [TPTE2_I104A peptide 92-107]
4.26
